# testDescription: Inhibition of adrenergic receptor
pIC50: −log10 of the molar value.
measure: pIC50

Item CC(C)C1c2cc(C#Cc3ccc4cc(C(=N)N)ccc4c3)ccc2CCN1C (stereo unspecified) has what recorded pIC50?
> 5.00
